- Tested System: human serum-derived IgG polyclonal antibody (#I4506; Sigma-Aldrich) (human)
- Protocol Notes: SPR, lysate, human IgG chip
Quantity Measured: koff (s⁻¹)

1. R3-58 (scFv, not shown: small tags and cut ends) scFv: QQQLMESGGRLVTPGGSLTLTCTVSGIDLNSYAMGWVRQAPGKGLEYIGIIRNSGNTYYASWAKGRFTISKTSSTTVDLKMTSLTTEDTATYFCARYSGDNGGALNLWGPGTLVTVTSGGGGSGGGGSGGGGSELVMTQTAASVSGPVGGTVTIKCQASEFIRNYLAWYQQKPGQPPKLLIYTTSNLASGVPSRFSGSGSGTEYTLTISDLECADAATYYCQNYYDISTYGNAFGGGTEVVVIKGS :: 0.000742
2. R2-18 (scFv, not shown: small tags and cut ends) scFv: QSLEESGGRLVTPGTPLTLTCTVSGIDLSSNAMTWVRQAPGEGLEWIGTISTGGSTYFASWAKGRFTISKTSTTVDLKITSPTTEDTATYFCATRYDSYGYAYNYWFGTLWGPGTLVTVTSGGGGSGGGGSGGGGSELVMTQTAASVSEPVGGTVTIKCQASQNINNELAWYQQKPGQRPKLLIYDASKLASGVPSRFSGSGSGTEFTLTISGMQCDDAATYYCQSTYYDGNYVYAFGGGTEVDVKGS :: 0.0008
